Catalogue of EC50 readings, one per entry.
# assayed-system: T1, human PD-L1 (human, UniProt Q9NZQ7 19-290)
# T1 construct: whole, on cells; also called hPD-L1; PD-L1 antigen on MDA-MB-231 cells
# T1 sequence (Q9NZQ7 19-290): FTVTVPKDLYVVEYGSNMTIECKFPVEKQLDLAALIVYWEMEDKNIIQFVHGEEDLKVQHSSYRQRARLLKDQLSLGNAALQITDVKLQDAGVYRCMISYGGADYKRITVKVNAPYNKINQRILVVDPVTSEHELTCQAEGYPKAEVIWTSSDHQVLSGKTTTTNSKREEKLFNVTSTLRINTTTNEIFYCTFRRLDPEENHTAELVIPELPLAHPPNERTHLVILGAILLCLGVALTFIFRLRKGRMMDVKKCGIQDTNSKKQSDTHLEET
# assay-notes: FACS on MDA-MB-231 cells (endogenous PD-L1)
Answer in nM, number only, no unit symbol.

binder: antibody A (VHH, Anti-PD-L1 alpaca nanobody) VHH: QVQLVESGGGLVQAGGSLRLSCAASGRSFSSSGMGWFRQAPGKDREFVATINSSGGDTYYRDSVEGRFTTSRDNAKNTMSLQMNDLKPEDTAVYYCAAKEGGGPSSIPAIYDYWGQGTQVTVSS
EC50 [nM]: 0.089
//
binder: antibody C (VHH, Anti-PD-L1 alpaca nanobody) VHH: EVQLVESGGGSVQTGGSLRLSCVASGRDFLTYGMGWFRQAPGKEREFVASINWSGSMTYYADSVKGRFTISRDNAKNTVYLQMNSLKPGDTAVYICAARRGAVTYASSNEYEHWGQGTQVTVSS
EC50 [nM]: 0.042
//
binder: antibody E (VHH, Anti-PD-L1 alpaca nanobody) VHH: QVQLVESGGGLVQAGGSLRLSCAASGRSFSSSGMGWFRQAPGKDREFVATINSSGGDTYYADSVEGRFTTSRDNAKNTMSLQMNDLKPEDTAVYYCAAKEGGGPSSIPAIFDYWGQGTQVTVSS
EC50 [nM]: 0.053
//
binder: antibody B (VHH, Anti-PD-L1 alpaca nanobody) VHH: QVQLVESGGGLVQPGGSLSLSCVASGFTFSSYAMRWVRQAPGKEPEWVAGINTGSEIVVYANSVRGRFAISRDNARDTLFLQMNSLKPEDTAVYYCATGLVSAEHDGIWGQGTQVTVSS
EC50 [nM]: 0.031

Continue with the binder presented below.
Task item: Would you mind telling me what EC50 value was observed for antibody D (VHH, Anti-PD-L1 alpaca nanobody) VHH: EVQLVESGGGLVQAGDSLRLSCTASGRDFLTYGMGWFRQAPGKEREFVASINWSGSMTYYADSVKGRFTISRDNAKNTVYLQMNSLKPGDTAVYICAARRGAVTYASSNEYEHWGQGTQVTVSS ?
Reply: 0.039
